Where do the numbers come from? From ChEMBL document CHEMBL1201862.

# Tested on: IGROV-1
# experimentNotes: NCI tumour cell line growth inhibition, 48 h
Activity calls are given as the source filed them. Cut-off read from the data, not from the text of the source: active = GI50 up to about 1.1 µM and inactive = higher.
Form entry, call: pick from label 1 for active, label 0 for inactive

- molecule: "O=c1cc(O)c2c(O)cc(O)cc2o1"
  tgt: "IGROV-1"
  group: "label 0"
- molecule: "C=CCC(CCC(C)=O)(C(=O)OCC)C(=O)OCC"
  tgt: "IGROV-1"
  group: "label 0"
- molecule: "COc1ccc2sc(-n3nc4ccccc4c3Nc3nc4ccc(OC)cc4s3)nc2c1"
  tgt: "IGROV-1"
  group: "label 0"
- molecule: "CCOC(=O)C1N(S(=O)(=O)c2ccc(C)cc2)CCC12C(c1ccc(OC)c(OC)c1)=Nc1ccccc12 (stereo not given)"
  tgt: "IGROV-1"
  group: "label 0"
- molecule: "O=C(Nc1ccc(Cl)cc1)Oc1ccc(C(=S)Nc2ccc(Br)cc2)cc1"
  tgt: "IGROV-1"
  group: "label 0"

Q) Hi, do you know how O=C(O)CCNCC(=O)O came out in this test?
A) label 0

Q) Again, but for N#Cc1ccc(C2ON=C(c3ccccc3)N2C23CC4CC(CC(C4)C2)C3)cc1 (stereo not given)
A) label 0

Q) # repeat for COc1cc(/C=C2\C[C@H]3[C@@H]4CC=C5C[C@@H](O)CC[C@]5(C)[C@H]4CC[C@]3(C)C2=O)cc(OC)c1OC
A) label 0

Q) What do you have for COC(=O)C1Cc2ccc(O)c(O)c2CN1 (stereo not given) ?
A) label 0

Q) How about CCOP(=O)(OCC)C(F)(F)CC1CCCCC1 ?
A) label 0

Q) Another molecule to check: CCOC(=O)CC(=O)Nc1cccc2nc[nH]c12
A) label 0

Q) Also need OC(Cc1cnnc2ccccc12)C(Cl)(Cl)Cl (stereo not given) , thanks.
A) label 0

Q) Would you mind doing COc1ccc(C(C#N)NC23CC4CC(CC(C4)C2)C3)cc1OC (stereo not given) as well?
A) label 0

Q) Next record, please: CC(=O)c1cccc(NC2C(N)C(NC(=O)N(C)C)(C(C)O)C(C)(O)C2(O)COC(=O)c2c(C)cccc2O)c1 (stereo not given)
A) label 1

Q) Now the same for COC1CC(OC2C(C)OC(OC3C(C)OC(OC4C(C)OC(O[C@H]5CC[C@@]6(C)C(=CC[C@]7(O)[C@@H]6C[C@@H](OC(=O)/C=C(\C)C(C)C)[C@@]6(C)[C@]7(O)CC[C@@]6(O)C(C)=O)C5)CC4OC)CC3OC)CC2OC)OC(C)C1O (stereo not given in full)
A) label 0

Q) Another molecule: Cc1ccc(CC(Cc2ccc(C)cc2C(=O)O)C(=O)O)cc1 (stereo not given)
A) label 0

Q) // same read-out, input: O=[N+]([O-])c1ccc(/C=N/n2c(CO)nc3ccccc32)o1
A) label 1

Q) And the next one, O=C(O)CCC(=O)OCN1C(=O)C2C3C=CC(C2C1=O)C1C2C(=O)N(COC(=O)CCC(=O)O)C(=O)C2C31 (stereo not given) ?
A) label 0

Q) Also CC(=O)N1CC(=O)NC1=S , if possible.
A) label 0

Q) Next record, please: COC(=O)[C@]1(C)CCC[C@]2(C)C3CC4OOC3(C=C4C(C)(C)O)CCC21 (stereo not given in full)
A) label 0

###

Catalogue of compounds with associated GI50
# System: NCI-H522
# experimentNotes: NCI tumour cell line growth inhibition, 48 h
Active and inactive are the calls of the source. Rule as the data show it: active = GI50 up to about 1.1 µM and inactive = higher.

- compound: "CC(=O)OCc1ccc2oc(=O)c(C(=O)Oc3cccc(Cl)c3)cc2c1"
  tgt: "NCI-H522"
  GI50: "> 100 µM (inactive)"
- compound: "CC1NC(=O)C2Cc3ccc(O)c(c3)Oc3ccc(cc3)C(O)C(C(=O)N2C)N(C)C(=O)C(C)NC(=O)C(Cc2ccc(O)cc2)N(C)C(=O)C(C)NC1=O (stereo not given)"
  tgt: "NCI-H522"
  GI50: "9.44 µM (inactive)"
- compound: "OC(Cc1cnnc2ccccc12)C(Cl)(Cl)Cl (stereo not given)"
  tgt: "NCI-H522"
  GI50: "> 10 µM (inactive)"

Q) // fetch NCI-H522 GI50 for O=C(O)c1ccccc1.[Ag]
A) 1.5 µM (inactive)

Q) Now consider COc1ccc2c(c1)CC[C@@H]1[C@@H]2CC[C@]2(C)C(=O)/C(=C/c3ccc(C#N)cc3)C[C@@H]12 .
A) > 100 µM (inactive)
